This listing pairs compounds with measured EC50.
tgt: STAT6 (Homo sapiens)
Construct: stably transfected HaCaT keratinocyte cell line, which expresses NanoLuc luciferase reporter gene under the transcriptional control of the STAT6 responsive promoter; endogenous in cells; host or cells: HaCaT keratinocyte reporter cell line (stably transfected with a NanoLuc reporter)
Sequence (P42226 whole entry): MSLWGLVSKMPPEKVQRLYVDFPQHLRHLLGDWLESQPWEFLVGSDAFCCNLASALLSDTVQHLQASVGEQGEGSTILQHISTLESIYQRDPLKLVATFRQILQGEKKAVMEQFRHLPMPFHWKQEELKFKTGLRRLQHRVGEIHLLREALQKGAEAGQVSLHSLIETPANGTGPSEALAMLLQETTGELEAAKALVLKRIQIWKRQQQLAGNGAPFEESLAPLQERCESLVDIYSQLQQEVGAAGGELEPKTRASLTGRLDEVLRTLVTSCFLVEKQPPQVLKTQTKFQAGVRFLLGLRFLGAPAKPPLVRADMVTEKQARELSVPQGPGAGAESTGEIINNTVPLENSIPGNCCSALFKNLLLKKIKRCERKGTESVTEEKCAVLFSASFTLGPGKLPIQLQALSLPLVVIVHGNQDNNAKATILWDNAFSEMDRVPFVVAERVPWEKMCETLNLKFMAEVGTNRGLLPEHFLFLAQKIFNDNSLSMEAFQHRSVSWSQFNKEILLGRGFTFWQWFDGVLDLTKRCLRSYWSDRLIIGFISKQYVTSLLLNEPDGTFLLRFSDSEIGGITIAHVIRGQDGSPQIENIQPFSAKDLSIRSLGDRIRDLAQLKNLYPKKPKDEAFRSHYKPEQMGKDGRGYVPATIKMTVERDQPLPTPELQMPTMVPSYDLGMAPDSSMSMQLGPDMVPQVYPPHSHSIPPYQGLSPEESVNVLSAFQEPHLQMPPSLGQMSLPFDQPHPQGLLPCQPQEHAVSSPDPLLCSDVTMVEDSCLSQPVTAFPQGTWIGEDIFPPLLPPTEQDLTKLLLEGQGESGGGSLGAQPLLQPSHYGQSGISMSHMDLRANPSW
method: STAT6 Reporter Luciferase Assay (IL-13 stimulated HaCaT keratinocyte NanoLuc reporter cells)
Format: cell-based
protocol.conditions: IL-13 stimulated HaCaT STAT6 NanoLuc reporter cells; read-out: Reporter EC50

compound	EC50 (nM)
CC(C)n1nc(C(=O)NCc2ccc(NC(=O)N3CCC(C)(N(C)C)C3)cc2)c2c1[C@@H](C)CN(c1ccc(C(=O)N(C)C)cc1)C2 (stereo partly drawn) [Example 752]	2
CNC1CN(C(=O)Nc2ccc(CNC(=O)c3nn(C(C)C)c4c3CN(c3ccc(C(=O)N(C)C)cc3)C[C@@H]4C)cc2)C1 [Example 619]	3
CC(CO)n1nc(C(=O)NCc2ccc(NC(=O)N(C)C)cc2)c2c1CCN(c1ccc(C(=O)N(C)C)cn1)C2 (single isomer, unassigned) [Example 360]	74
CC(C)n1nc(C(=O)NCc2ccc(NC(=O)N3CCC4(CCN(C)CC4)CC3)c(F)c2)c2c1[C@@H](C)CN(c1ccc(C(=O)N(C)C)cc1)C2 [Example 660]	4
CC(C)n1nc(C(=O)NCc2ccc(NC(=O)N3CCC(C)(O)CC3)cc2)c2c1[C@@H](C)CN(c1ccc(C(=O)N(C)C)cn1)C2 [Example 592]	1
CCn1nc(C(=O)NCc2ccc(NC(=O)N(C)C)cc2)c2c1[C@H]1CC[C@H]1N(c1ccc(C(=O)N(C)C)cn1)C2 (single isomer, unassigned) [Example 230]	14

====

tgt: STAT6 (Homo sapiens)
Construct: stably transfected HaCaT keratinocyte cell line, which expresses NanoLuc luciferase reporter gene under the transcriptional control of the STAT6 responsive promoter; endogenous in cells; host or cells: HaCaT keratinocyte reporter cell line (stably transfected with a NanoLuc reporter)
method: STAT6 Reporter Luciferase Assay (IL-13 stimulated HaCaT keratinocyte NanoLuc reporter cells)
Assay type: cell-based
protocol.conditions: STAT6 NanoLuc luciferase reporter, IL-13 stimulated HaCaT keratinocyte cells; read-out: Reporter EC50
pEC50: −log10 of the molar value. Counter-ions that a name gives are not always drawn.
property.label: pEC50

In [3]: df
Out[3]:
                                   compound  property_label  numeric_value
0  Cc1nc(C(=O)NCc2ccc(NC(=O)N(C)C)cc2)c2n1CCN(c1ccc(C(=O)N(C)C)cn1)C2           pEC50           6.91
1  CCC1CN(c2ccc(C(=O)N(C)C)cn2)Cc2c(C(=O)NCc3ccc(NC(=O)N(C)C)cc3)nc(C)n21 (single isomer, unassigned) [Example 131]           pEC50           6.99
2  Cc1nc(C(=O)NCc2ccc(NC(=O)N(C)C)cc2)c2n1C(C)CN(c1ccc(C(=O)N(C)C)cn1)C2 (racemic) [Example 9, formate]           pEC50           7.82
3  CN(C)C(=O)Nc1ccc(CNC(=O)c2nn(C3(C)CC3)c3c2CN(c2ccc(C(=O)N(C)C)cn2)CC3)cc1           pEC50           8.22
4  Cc1ccnn1-c1ccc(N2CCc3c(c(C(=O)NCc4ccc(NC(=O)N(C)C)cc4)nn3C(C)C)C2)nc1           pEC50           8.52
5  CN(C)C(=O)Nc1ccc(CNC(=O)c2nc(C(F)(F)F)n3c2CN(c2ccc(C(=O)N(C)C)cn2)CC3)cc1           pEC50           7.68
6  CN(C)C(=O)Nc1ccc(CNC(=O)c2noc3c2CN(c2ccc(C(=O)N(C)C)cn2)CC3)cc1           pEC50           7.34
